# Assay System: cynomolgous IL-13 (cynomolgous, UniProt Q0PW92 19-132, The Biacore assay used biotinylated cIL-13 according to our card. The biotin cannot be carried in the letters.)
# Sequence (Q0PW92 entry or part of it limits assumed, form in doubt): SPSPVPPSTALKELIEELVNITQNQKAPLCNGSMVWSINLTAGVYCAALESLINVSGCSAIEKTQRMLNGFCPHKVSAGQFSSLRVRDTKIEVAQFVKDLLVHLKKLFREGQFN
# Method Summary: cell-based or functional assay
Quantity Name: EC50, HEK293 STAT6 SEAP reporter assay, cIL-13 (nM)
Numeric answer only, unit nM assumed.

- Binder: "DOM10-275-101 (other) VH: GVQLLESGGGLVQPGGSLRLSCVASGFTFDVAEMDWVRQAPGKGLEWVSTISPSRRGTYYADSVKGRFTISRDNSKNTLYLQMNSLRAEDTAVYYCAKAYTGRSLWGPGTLVTVSS"
  Reported Value: 1.8
- Binder: "DOM10-275-100 (other) VH: GVQLLESGGGLVQPGGSLRLSCAASGFTFDSAEMDWVRQAPGKGLEWVSTISPSRRGTYYADSVKGRFTISRDNSKNTLYLQMNSLRAEDTAVYYCAKAYTGRSYWGPGTLVTVSS"
  Reported Value: 2.5
- Binder: "DOM10-275-99 (other) VH: EVHLLESGGGLVQPGGSLRLSCAASGFTFDSAEMDWVRQAPGKGLEWVSTISPSRRGTYYADSVKGRFTISRDNSKNTLYLQMNSLRAEDTAIYYCAKAYTGRSYWGPGTLVTVSS"
  Reported Value: 2

Please find the next binder below.
Per the records, this binder ( DOM10-53-474 (other, VH dAb) VH: GVQLLESGGGLVQPGGSLRLSCAASGFTFAWYDMGWVRQAPGKGLEWVSSIDWHGEVTYYADSVKGRFTISRDNSKNTLYLQMNSLRAEDTAVYYCATAEDEPGYDYWGQGTLVTVSS ) has EC50, HEK293 STAT6 SEAP reporter assay, cIL-13 equal to 11.1
